Biological target: T1, GFP-9S library array, motif 4 ND N98T;D124R (synthetic construct, N98T;D124R)
T1 chain: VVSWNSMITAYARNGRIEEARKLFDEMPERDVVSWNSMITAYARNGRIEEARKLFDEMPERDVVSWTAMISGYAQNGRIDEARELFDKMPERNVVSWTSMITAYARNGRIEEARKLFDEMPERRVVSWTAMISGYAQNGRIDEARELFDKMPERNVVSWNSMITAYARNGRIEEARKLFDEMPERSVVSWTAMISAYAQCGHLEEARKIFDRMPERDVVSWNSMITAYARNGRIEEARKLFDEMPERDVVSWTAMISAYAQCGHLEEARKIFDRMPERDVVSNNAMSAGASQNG
Assay: high-throughput RNA pulldown from lysate on Ni-NTA beads; HRP: 50 mM Tris pH 8, 150 mM NaCl, 1 mM beta-mercaptoethanol, 50 ug/ml BSA, 3 ug/ml yeast RNA, 0.5% heparin; ITC and FP: Tris pH 8, 200 mM KCl, 5% glycerol; MST: 50 mM Tris pH 8, 200 mM NaCl, 1 mM DTT, BSA, heparin, 0.05% Tween 20
Settings: tags: N-terminal His-eGFP; label: 5' IRDye 800CW
Exercise: state measured Kd for each of the binders provided.
Please state the number and follow it with the unit.

Problem: # Kd lookup, item AUUAAACGUGA (ssRNA) [IR-rpoA-A]
Solution: 80.8 nM

Problem: # Kd lookup, item AUUAUACGUGA (ssRNA) [IR-rpoA-U]
Solution: 133 nM
